Measured values drawn from the supplement of paper PMC10567573 for this set.

I'd appreciate it if you could supply protein stability index values for the items below.
B1: ZNF449 (parent)
chain: TLHQRTHTEERPFKCNYCGKSFRQ

Variants of: B1
test_summary: protein stability index of a GFP-peptide fusion (GPS, HEK-293T) (PSI 1-6); higher = more stable;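 also: lentivirally expressed fusions sorted by FACS into six bins by GFP to DsRed ratio, PSI derived from sequencing read proportions per bin multiplied by bin number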
study_conditions: c terminus: a fixed tail appended
Give bare numbers.

| mutation_label | protein stability index |
| --- | --- |
| T8F | 2.34 |
| F13Y | 2.22 |
| R5V | 3.27 |

I would be grateful if you could provide protein stability index for each of the following entries.
1. S21A
2. H3F
3. G19D
4. G19C
5. Q4T
6. T8G
7. C18R

1.92
2.47
3.4
2.38
2.67
2.04
3.38
